Reference for the values: ChEMBL document CHEMBL1153411

Assay: Critical micelle concentration in aqueous triethanalamine at pH 8.0 to 9.5 by fluorescence spectra measurement
Conditions: buffer
Reported Property: CMC (µM)
Numbers only, in µM.

Example compounds with recorded CMC:
                               smiles_entry  data_value
0  CCCCCCCCCCCCCCCCCCCCCCOC(=O)NC(CCC(=O)O)(CCC(=O)O)CCC(=O)O         330
1  CCCCCCCCCCCCCCCCCC(=O)NC(CCC(=O)O)(CCC(=O)O)CCC(=O)O       11000

Consider the additional compound presented here.
-- ask Reported CMC for CCCCCCCCCCCCCCCCCCOC(=O)NC(CCC(=O)O)(CCC(=O)O)CCC(=O)O : what is it?
-- reply 2700
